Data credit: PubChem BioAssay (NCATS)

Target: Glucocorticoid receptor (Homo sapiens) (UniProt P04150)
Sequence (P04150 whole entry, looked up): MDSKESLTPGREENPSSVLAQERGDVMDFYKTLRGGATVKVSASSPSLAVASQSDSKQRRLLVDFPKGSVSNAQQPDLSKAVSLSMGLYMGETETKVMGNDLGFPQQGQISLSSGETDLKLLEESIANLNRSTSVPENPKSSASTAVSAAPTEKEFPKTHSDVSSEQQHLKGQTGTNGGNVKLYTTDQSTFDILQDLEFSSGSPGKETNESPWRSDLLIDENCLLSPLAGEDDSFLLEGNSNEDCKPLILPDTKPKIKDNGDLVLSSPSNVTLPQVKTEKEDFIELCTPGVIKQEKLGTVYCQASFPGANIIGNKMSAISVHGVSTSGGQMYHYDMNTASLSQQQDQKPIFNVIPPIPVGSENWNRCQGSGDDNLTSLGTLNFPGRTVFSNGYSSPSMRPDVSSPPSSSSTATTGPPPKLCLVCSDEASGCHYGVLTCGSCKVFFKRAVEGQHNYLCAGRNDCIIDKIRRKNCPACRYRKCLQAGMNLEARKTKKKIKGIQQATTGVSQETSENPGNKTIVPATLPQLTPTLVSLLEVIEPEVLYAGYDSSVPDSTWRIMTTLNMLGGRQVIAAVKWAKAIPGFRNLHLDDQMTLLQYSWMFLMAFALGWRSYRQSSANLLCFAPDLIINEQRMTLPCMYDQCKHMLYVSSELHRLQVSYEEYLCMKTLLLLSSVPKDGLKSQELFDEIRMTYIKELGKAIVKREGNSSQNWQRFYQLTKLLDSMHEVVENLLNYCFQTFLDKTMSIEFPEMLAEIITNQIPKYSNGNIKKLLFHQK
Assay: GR-GFP Redistribution (AID 450); further: potency means the concentration at half of the fitted maximal effect
Conditions: U2OS GR-GFP nuclear translocation, laser cytometry, 2 h
Method: NIH Molecular Libraries Screening Centers Network [MLSCN] NIH Chemical Genomics Center [NCGC] […] GR-GFP U2OS cells were maintained in DMEM with Glutamax and high glucose, 1% v/v penicillin-streptomycin, and 0.5 mg/mL Geneticin. […] The plates were read by the Acumen Explorer using a 1 x 8 um scan of the whole well area. PI fluorescence triggered the collection of PI and GFP signals. […]
Active and inactive are the calls of the source.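 How the source made its calls: active means compounds whose dose series gives a full or clear partial fitted curve of increased nuclear translocation; inconclusive means weak partial curve or effect only at the top dose; inactive means no dose-dependent translocation response.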
A correct response names exactly one class from 1 (yes) = active, 0 (no) = inactive

Examples from the recorded data:
Cc1c(C)c2c(c(C)c1O)CC[C@@](C)(CCC[C@@H](C)CCC[C@@H](C)CCCC(C)C)O2: 0 (no)
C[C@]12C=CC(=O)C=C1CC[C@@H]1[C@@H]2[C@@H](O)C[C@@]2(C)[C@H]1CC[C@]2(O)C(=O)COC(=O)CCC(=O)O: 1 (yes)

Prompt line: Record request — test call for COC(=O)C1=C(C)NC(C)=C(C(=O)OCCCN2CCC(c3ccccc3)(c3ccccc3)CC2)[C@H]1c1cccc([N+](=O)[O-])c1
Response line: 0 (no)

Prompt line: Record request — test call for CC(C)N=c1cc2n(-c3ccc(Cl)cc3)c3ccccc3nc-2cc1Nc1ccc(Cl)cc1
Response line: 0 (no)

Prompt line: Record request — test call for Cc1onc(-c2ccccc2)c1C(=O)N[C@@H]1C(=O)N2[C@@H]1SC(C)(C)[C@@H]2C(=O)O
Response line: 0 (no)

Prompt line: Record request — test call for CCCC(=O)O[C@]1(C(=O)COC(C)=O)CC[C@H]2[C@@H]3C[C@H](F)C4=CC(=O)C=C[C@]4(C)[C@@]3(F)[C@@H](O)C[C@@]21C
Response line: 1 (yes)

Prompt line: Record request — test call for CC(=O)OCC(=O)[C@@]12OC3(CCCC3)O[C@@H]1C[C@H]1[C@@H]3CCC4=CC(=O)C=C[C@]4(C)[C@@]3(F)[C@@H](O)C[C@@]12C
Response line: 1 (yes)

Prompt line: Record request — test call for CC1(C)S[C@@H]2[C@H](NC(=O)[C@@H](NC(=O)N3CCNC3=O)c3ccccc3)C(=O)N2[C@H]1C(=O)O
Response line: 0 (no)

Prompt line: Record request — test call for CN(C)CCCN1c2ccccc2C(C)(C)c2ccccc21
Response line: 0 (no)

====

Test system: FAB9
Experiment: qHTS profiling for inhibitors of Plasmodium falciparum proliferation (AID 504749); further: nearly all actives have a fitted effect of over 60% in size
Settings: P. falciparum in erythrocytes, SYBR Green DNA, 72 h; series mostly up to 28.7 µM
Description: NIH National Institute of Allergy and Infectious Diseases [NIAID] NIH Chemical Genomics Center [NCGC] […] Because mature erythrocytes lack DNA, only Plasmodium-derived DNA is detected. NCGC Assay Protocol Summary: The SYBR Green viability assay was adapted from a method described previously (Plouffe et al., 2008). […] The following morning, fluorescence intensity at 485(14) nm excitation and 535(25) nm emission wavelengths was measured on an EnVision (Perkin Elmer) plate reader. […]
Inconclusive results are not listed. The source made the active and inactive calls. The call rests on the fitted dose curve; in most records, active means well fitted inhibition curve with a large enough effect; inconclusive means small, poorly fitted or top-dose-only effect; inactive means flat fitted curve, though single readings scatter.
A correct response names exactly one class from true for active, false for inactive

COC(=O)[C@H]1[C@H]2CC3c4[nH]c5ccccc5c4CCN3C[C@@H]2CC[C@@H]1O (some centres undefined): false
O=CCCCC=O: false
CCCC(=O)O[C@]1(C(=O)CCl)[C@H](C)C[C@@H]2[C@H]3CCC4=CC(=O)C=C[C@]4(C)[C@@]3(F)C(=O)C[C@@]21C: true
IC(I)I: false
C=CCSSSCC=C: false

Prompt line: Record request — test call for O=C(O)c1cc(O)c2c(c1)[O][Bi][O]2
Response line: false

Prompt line: Record request — test call for CC(NNC(=O)c1ccccc1)c1ccccc1 (centres undefined)
Response line: false

Prompt line: Record request — test call for CC1=CCC(C(C)(C)O)CC1 (centres undefined)
Response line: false

Prompt line: Record request — test call for O=C(O)CN(CCN(CC(=O)O)CC(=O)O)CC(=O)O
Response line: false

====

System: ECU
Test: qHTS profiling for inhibitors of Plasmodium falciparum proliferation (AID 504749); further: nearly all actives have a fitted effect of over 60% in size
Conditions: P. falciparum in erythrocytes, SYBR Green DNA, 72 h; series mostly up to 28.7 µM
Records with an inconclusive call do not appear. Calls of active or inactive are those of the source. The call rests on the fitted dose curve; in most records, active means well fitted inhibition curve with a large enough effect; inconclusive means small, poorly fitted or top-dose-only effect; inactive means flat fitted curve, though single readings scatter.
A correct response names exactly one class from 1 = active, -1 = inactive

Examples from the recorded data:
CCCCCCC(O)C/C=C/CCCCCCCC(=O)O (stereo not given): -1
O=C(O)CN(CCN(CC(=O)O)CC(=O)O)CC(=O)O: -1
C=C1C(=CC=C2CCC[C@@]3(C)[C@@H]2CC[C@H]3[C@H](C)CCCC(C)C)C[C@@H](O)C[C@@H]1O: 1
CC(C)N=c1cc2n(-c3ccc(Cl)cc3)c3ccccc3nc-2cc1Nc1ccc(Cl)cc1: -1
C=CCSSSCC=C: -1

Prompt line: Record request — test call for CC(C)(C)C(=O)OCOC(=O)[C@@H]1N2C(=O)[C@@H](N=CN3CCCCCC3)[C@H]2SC1(C)C
Response line: -1

Prompt line: Record request — test call for CCOC(C)=O
Response line: -1

====

Test system: GB4
Assay: qHTS profiling for inhibitors of Plasmodium falciparum proliferation (AID 504749); further: nearly all actives have a fitted effect of over 60% in size; further: potency means the concentration at half of the fitted maximal effect
Details: P. falciparum in erythrocytes, SYBR Green DNA, 72 h; series mostly up to 28.7 µM
Inconclusive results are not listed. Calls of active or inactive are those of the source. Calls follow the shape of the dose curve; as a rule, active = well fitted inhibition curve with a large enough effect; inconclusive = small, poorly fitted or top-dose-only effect; inactive = flat fitted curve, though single readings scatter. Peptide text beside a SMILES is read from it.
property.name: Potency

Examples with answers:
CCOC(=O)C1=C(C)NC(C)=C(C(=O)OCC)C1c1ccccc1C=CC(=O)OC(C)(C)C: 10.7 µM (active)
CCOC(C)=O: inactive
CO[C@H]1C[C@@H]2CC[C@@H](C)[C@@](O)(O2)C(=O)C(=O)N2CCCC[C@H]2C(=O)O[C@H]([C@H](C)C[C@@H]2CC[C@@H](OCCO)[C@H](OC)C2)CC(=O)[C@H](C)/C=C(\C)[C@@H](O)[C@@H](OC)C(=O)[C@H](C)C[C@H](C)/C=C/C=C/C=C/1C: 1.69 µM (active)
CCOc1ccc2c(c1)C(C)=CC(C)(C)N2: inactive
C[C@]12O[C@H](C[C@]1(O)CO)n1c3ccccc3c3c4c(c5c6ccccc6n2c5c31)CNC4=O: 0.269 µM (active)
CCCC(=O)Nc1ncnc2c1ncn2C1OC2COP(=O)(O)OC2C1OC(=O)CCC (stereo not given): inactive
CC(=O)N[C@@H](CC(=O)O)C(=O)N[C@@H](CCC(=O)O)C(=O)O (Ac-Asp-Glu-OH): inactive
CCN(CC)Cc1cc(Nc2ccnc3cc(Cl)ccc23)ccc1O: 0.0405 µM (active)

Prompt line: Item: O=S(=O)(O)O Test system: GB4 Read-out: Potency Value: ?
Response line: inactive

====

System: CP286
Assay: qHTS profiling for inhibitors of Plasmodium falciparum proliferation (AID 504749); further: nearly all actives have a fitted effect of over 60% in size
Conditions: P. falciparum in erythrocytes, SYBR Green DNA, 72 h; series mostly up to 28.7 µM
Records with an inconclusive call do not appear. The source made the active and inactive calls. Calls follow the shape of the dose curve; as a rule, active = well fitted inhibition curve with a large enough effect; inconclusive = small, poorly fitted or top-dose-only effect; inactive = flat fitted curve, though single readings scatter.
A correct response names exactly one class from true = active, false = inactive

Prompt line: Record request — test call for CC(C)N=c1cc2n(-c3ccc(Cl)cc3)c3ccccc3nc-2cc1Nc1ccc(Cl)cc1
Response line: true

Prompt line: Record request — test call for Cc1c(C)c2c(c(C)c1O)CC[C@@](C)(CCC[C@@H](C)CCC[C@@H](C)CCCC(C)C)O2
Response line: false

Prompt line: Record request — test call for O=C(O)CCC(=O)C(=O)O
Response line: false

====

Test system: Zika virus NS2B-NS3 protease (unlinked complex)
Test: Primary screen GU Rhodamine qHTS for Zika virus inhibitors: Unlinked NS2B-NS3 protease assay (AID 1347159); further: nearly all actives have a fitted effect of over 60% in size
Settings: Recombinant ZIKV NS2B-NS3 protease, Rhodamine110 substrate fluorescence; series mostly up to 107 µM
Results filed as inconclusive are left out. Activity calls are given as the source filed them. Calls follow the shape of the dose curve; as a rule, active = well fitted inhibition curve with a large enough effect; inconclusive = small, poorly fitted or top-dose-only effect; inactive = no such curve, though single readings can be large or run the other way.
A correct response names exactly one class from active, inactive

Examples from the recorded data:
CC1=C2C(=O)C=C(CO)[C@@H]2[C@H]2OC(=O)[C@H](C)[C@@H]2[C@@H](O)C1: inactive
CC(O)(CC(=O)O)CC(=O)O[C@@H]1[C@@H](O)[C@H](OCCc2ccccc2)O[C@H](CO)[C@H]1O (stereo partly drawn): inactive
Nc1c(Br)cc(Br)cc1CNC1CCC(O)CC1 (stereo not drawn): inactive
O=C(/C=C/c1ccc(O)cc1)OCC1=CC2OC(=O)C3=CO[C@@H](O[C@@H]4O[C@H](CO)[C@@H](O)[C@H](O)[C@H]4O)[C@H]1[C@@H]32 (stereo partly drawn): inactive
C[C@H](NCc1ccc(OCc2ccccc2F)cc1)C(N)=O: inactive

Prompt line: Record request — test call for COc1cc(C(=O)OC[C@H]2O[C@H](O[C@@]3(CO)O[C@@H](CO)[C@H](O)[C@H]3O)[C@H](O)[C@@H](O)[C@@H]2O)ccc1O
Response line: inactive

Prompt line: Record request — test call for CCc1nc(C(N)=O)c(Nc2ccc(N3CCC(N4CCN(C)CC4)CC3)c(OC)c2)nc1NC1CCOCC1
Response line: inactive

Prompt line: Record request — test call for COc1c(C(CC(C)C)OC(C)=O)ccc(Oc2c(O)cc(C)cc2/C=C/C(C)=O)c1C(=O)O (stereo not drawn)
Response line: active
